Data credit: BigSolDB 2.1

- Applied Conditions: in isopropanol, 303.15 K
Measured Attribute: solubility (mole fraction)
Please give only the number in your answer, with no unit.

Problem: Give the reported solubility (mole fraction) for this molecule. CCCNS(=O)(=O)Nc1ncnc(OCCOc2ncc(Br)cn2)c1-c1ccc(Br)cc1
Result: 0.000172

###

- Applied Conditions: in isopropanol, 308.15 K
Measured Attribute: solubility (mole fraction)
Please give only the number in your answer, with no unit.

Problem: Give the reported solubility (mole fraction) for this compound. CCCNS(=O)(=O)Nc1ncnc(OCCOc2ncc(Br)cn2)c1-c1ccc(Br)cc1
Result: 0.000206

###

- Applied Conditions: in methanol, 273.15 K
Measured Attribute: solubility (mole fraction)

Problem: Give the reported solubility (mole fraction) for this compound. CCCNS(=O)(=O)Nc1ncnc(OCCOc2ncc(Br)cn2)c1-c1ccc(Br)cc1
Result: 7.6e-05
